src = ChEMBL document CHEMBL1201862

system: EKVX; test: NCI tumour cell line growth inhibition, 48 h
The source made the active and inactive calls. No stated cut-off is given here; in the data, active = GI50 up to about 1.1 µM and inactive = higher.

# Compound, GI50
records = [
    ("CCOC(=O)C(C)(C)Oc1ccc2c(-c3ccccc3)cc(=O)oc2c1", "43 µM (inactive)"),
    ("c1ccc2c(c1)nc1n2C2CCC(C2)N1 (stereo unspecified)", "> 10 µM (inactive)"),
    ("C#C[C@]1(O)CCCC2=CC(=O)CC[C@@]21C", "> 100 µM (inactive)"),
    ("CC(C)(C)OC(=O)NC(Cc1ccccc1)NC(=O)NC(=O)OCc1ccccc1 (stereo unspecified)", "> 100 µM (inactive)"),
    ("CN1CCC(O)(OC(=O)C(c2ccccc2)C2(O)CCCC2)CC1 (stereo unspecified)", "> 100 µM (inactive)"),
    ("Cc1cccc(C(C)C)c1NC(=O)CCl", "20.6 µM (inactive)"),
    ("N#CCCOCN(CO)c1nc(N(CO)COCCC#N)nc(N(CO)COCCC#N)n1", "31.2 µM (inactive)"),
    ("CCOC(=O)C(C)(C)Oc1ccc2c(-c3ccc(Cl)cc3)c(-c3ccc(Cl)cc3)c(=O)oc2c1", "> 100 µM (inactive)"),
    ("CCCCCCCCCCCCc1ccsc1-c1ccc(-c2ccc(-c3sc(-c4cc(CCCCCCCCCCCC)c(-c5ccc(-c6ccc(-c7sccc7CCCCCCCCCCCC)s6)s5)s4)cc3CCCCCCCCCCCC)s2)s1", "> 100 µM (inactive)"),
    ("O=C(NC(Nc1ccc(F)c(Cl)c1)(C(F)(F)F)C(F)(F)F)C(C(F)(F)F)C(F)(F)F", "68.4 µM (inactive)"),
    ("O=C(/C=C(\\C(=O)c1cccs1)c1cccs1)c1ccc(C(=O)/C=C(\\C(=O)c2cccs2)c2cccs2)cc1", "> 100 µM (inactive)"),
    ("CSCC(COC(C)=O)(CSC)c1ccncc1", "> 100 µM (inactive)"),
    ("CCN(CC)CCNc1ccc2ncn3c4c(OC)cccc4c(=O)c1c23", "4.15 µM (inactive)"),
    ("CC(C)(C)c1cc2c(c(C(C)(C)C)c1O)CC(=O)O2", "30.8 µM (inactive)"),
    ("N=C1C=C(N)C(=O)c2[nH]c(=O)ccc21", "1.92 µM (inactive)"),
    ("Cc1ccc(NC(=O)C2C3CCC(O3)C2C(=O)O)cc1 (stereo unspecified)", "> 94.4 µM (inactive)"),
    ("CC(=C/c1ccccc1)/C=C1/NC(=S)N(/C=C2\\C(=O)Oc3ccccc3C2=O)C1=O", "27.9 µM (inactive)"),
    ("C1=CC(=P(c2ccccc2)(c2ccccc2)c2ccccc2)C=C1", "24.2 µM (inactive)"),
    ("Cc1ccc(S(=O)(=O)OC(C=O)C(O)C(O)COC(c2ccccc2)(c2ccccc2)c2ccccc2)cc1 (stereo unspecified)", "13.9 µM (inactive)"),
    ("NC(Cc1ccccc1)C(=O)O (stereo not drawn) [DL-PHENYLALANINE]", "> 100 µM (inactive)"),
    ("CCN(CC)C(=O)N1CCN(C=S)CC1", "> 100 µM (inactive)"),
]

====

system: HCT-15
Could you please mark 1 for values of GI50 below 10 µM and 0 for values at or above it?

# Compound, Label
rows = [
    ("Cc1ccc(NC(=S)C#N)cc1Cl", 0),
    ("C=C1C(=O)O[C@@H]2[C@H]1CC[C@H](C)[C@]1(O)CCC(=O)[C@@]21C", 0),
    ("CSc1nc(N)c2c(-c3ccccc3)c3c(nc2n1)CCCC3", 0),
    ("CCn1c2ccccc2c2cc(Nc3cc(C)[nH]c(=O)n3)ccc21", 0),
    ("Cc1cccc(C)c1NC(=O)CCCC(=O)C(C#N)c1ccc(Cl)cc1 (configuration not stated)", 0),
    ("COC(=O)C1=CCC[C@H]2[C@@]1(COC(C)=O)CC[C@@H](C)[C@]2(C)CC(=O)c1ccoc1", 0),
    ("CC(C)(C)c1cc2c(c(C(C)(C)C)c1O)CC(=O)O2", 0),
    ("c1ccc(CN2CCc3[nH]c4ccccc4c3C2)cc1", 0),
    ("CC(=O)c1ccc(Nc2nc3ccccc3c3occc23)cc1", 1),
    ("COc1ccc(C2ON(c3ccccn3)CC=C2C)cc1 (configuration not stated)", 0),
    ("COc1c(OC)c(N)c2cc(C)c(=O)c(C)cc2c1N", 0),
    ("Clc1ccc(-c2nnc(-c3nn(-c4ccccc4)c4nc5ccccc5nc34)o2)cc1", 0),
    ("Cc1cc(C)c2c(O)cc(-c3ccc4ccccc4c3)nc2n1", 1),
    ("O=P(O)(O)CN1CCNCCN(CP(=O)(O)O)CC1", 1),
    ("O=C(CSCC(=O)N/N=C/c1cccc(OCc2ccccc2)c1)N/N=C/c1cccc(OCc2ccccc2)c1", 0),
    ("CCCN1CC=C(c2cc(C(=O)OCC)[nH]c2-c2cc(C)no2)C1=O", 0),
    ("CN(C)c1ccc(/C=C/C=C(/C#N)c2ccccc2)cc1", 1),
    ("c1cncc(CSc2nc3ccccc3nc2-c2cccs2)c1", 0),
    ("C=C1CC[C@H]2C(C)=CC[C@H]3C(=C)C(=O)O[C@@H]3[C@@H]12", 0),
    ("COc1cc([N+](=O)[O-])ccc1NC(=O)c1cccc([N+](=O)[O-])c1O", 0),
    ("Cc1nn(-c2ccccc2)c(-c2ccccc2[N+](=O)[O-])c1CC#N", 0),
    ("NCCSC1(O)C(=O)c2ccccc2-c2ccccc21 (configuration not stated)", 1),
    ("CC1(C)O[C@@H](CP(c2cccc3ccccc23)c2cccc3ccccc23)[C@H](CP(c2cccc3ccccc23)c2cccc3ccccc23)O1", 0),
    ("N#CCCOCN(CO)c1nc(N(CO)COCCC#N)nc(N(CO)COCCC#N)n1", 0),
    ("CC(C)(C)OC(=O)NC(Cc1ccccc1)NC(=O)NC(=O)OCc1ccccc1 (configuration not stated)", 0),
    ("O=[N+]([O-])c1ccc(-c2ccc(C3=Nn4c(CNc5ccccc5Cl)nnc4SC3)o2)cc1", 0),
    ("CCC(=O)O[C@H]1CC[C@H]2[C@@H]3CCC4=CC(=O)C=C[C@]4(O)[C@H]3CC[C@]12C", 0),
    ("c1cc(-c2cnc(-c3ccc4c(c3)CCCO4)o2)ccn1", 0),
    ("O=C(CN1CCN(c2ccccc2)CC1)N1CCc2c([nH]c3ccccc23)C1c1cccnc1 (configuration not stated)", 0),
    ("CSC(=N)N1N=C2c3ccccc3CC[C@@H]2[C@@H]1c1ccccc1", 0),
    ("Cc1nc(N)nc(S)c1CCC(=O)O", 0),
    ("CN(C)C(=O)C(F)(F)C(c1ccc(F)cc1)C1C(=O)N(C)C(=O)N(C)C1=O (configuration not stated)", 0),
    ("CCOC(=O)C1=C(Nc2cccc(OC)c2)OCC1=O", 0),
    ("CCCCCCCCCC(=O)N[C@H]1CCc2cc(OC)c(OC)c(OC)c2-c2ccc(SC)c(=O)cc21", 1),
    ("CC(=O)NNC1=NN(C(C)=O)C2(S1)C(=O)Nc1ccccc12 (configuration not stated)", 0),
    ("OC1CN(OC/C=C/c2ccccc2)CC(O)C1O (configuration not stated)", 0),
    ("CCSc1nnc(Sc2c3ccccc3nc3ccccc23)s1", 1),
    ("CC[C@]12C=CCN3CCC4(c5cc([C@@]6(C(=O)OC)CC7CN(CCc8c6[nH]c6ccccc86)C[C@@H]6CCCC[C@H]76)c(OC)cc5N(C)C4[C@](O)(C(=O)OC)C1OC(C)=O)[C@@H]32 (some centres not stated)", 1),
    ("COCCOCOc1ccc(OCc2ccccc2)cc1", 0),
    ("Cc1cc(C)n2c(-c3ccccc3)c(C)cc2n1", 0),
    ("COc1cccc(NC(=O)c2c(SC)c(C#N)c(=O)n(N)c2N)c1", 0),
    ("CN(C)CCNc1ccc([N+](=O)[O-])c2nc3ccccc3c(N)c12", 1),
]
